# protocolDescription: physchem
# reportedConditions: aqueous buffer
assayMetric: solubility (µg/mL)
Write it as a number; the unit µg/mL goes unstated.

Problem: Need solubility of CC(C)c1nc(N(C)S(C)(=O)=O)nc(-c2ccc(F)cc2)c1/C=C/[C@@H](O)C[C@@H](O)CC(=O)O [rosuvastatin calcium] , thanks.
Solution: 600

====

# protocolDescription: physchem
# reportedConditions: organic solvent or mixture
assayMetric: solubility

Problem: Any idea what its solubility is? The compound is "CC(C)c1nc(N(C)S(C)(=O)=O)nc(-c2ccc(F)cc2)c1/C=C/[C@@H](O)C[C@@H](O)CC(=O)O"
Solution: 10000 µg/mL
